Tested on: SW620 cells
Experiment: SW620 cell proliferation assay (colorectal cancer, G12V), 5 days
Format: cell-based
Conditions: Homo sapiens, SW-620, 120 h
Each item that follows carries a reported pIC50.
Scale note: pIC50 = -log10(concentration in M).

[Q] For CC(C)C(C(=O)N1C[C@H](O)C[C@H]1C(=O)NCc1ccc(C#N)cc1)c1cc(OCCCCN2CCCN(c3nccc(-c4noc([C@@]5(C)CCCc6sc(N)c(C#N)c65)n4)n3)[C@@H](C)C2)no1 (stereo partly shown) , what is its reported pIC50?
[A] 7.43

[Q] Would you kindly repeat that for Cc1ncsc1-c1ccc([C@@H](NC(=O)[C@@H]2C[C@@H](O)CN2C(=O)[C@H](C(C)C)n2cc(OCCCCN3CCCN(c4nccc(-c5noc([C@@]6(C)CCCc7sc(N)c(C#N)c76)n5)n4)[C@@H](C)C3)nn2)[C@H](O)C(C)C)cc1 (single isomer, unassigned) ?
[A] 7.84

[Q] // next record Cc1ncsc1-c1ccc(CNC(=O)[C@@H]2C[C@@H](O)CN2C(=O)C(C(C)C)n2cc(CCCCCN3CCCN(c4nccc(-c5noc([C@@]6(C)CCCc7sc(N)c(C#N)c76)n5)n4)[C@@H](C)C3)nn2)cc1 (stereo partly shown)
[A] 7.29

[Q] What about CC(C)C(C(=O)N1C[C@H](O)C[C@H]1C(=O)NCc1ccc(Cl)cc1)c1cc(OCCCCN2CCCN(c3nccc(-c4noc([C@@]5(C)CCCc6sc(N)c(C#N)c65)n4)n3)[C@@H](C)C2)no1 (stereo partly shown) ?
[A] 7.08

* * *

Molecular target: KRAS(G12D) (Homo sapiens, UniProt P01116, G12D)
Construct: introduced immediately downstream of the initiating Methionine codon of the endogenous KRAS locus; host or cells: GP5d-HiBit-KRAS(G12D), a CRISPR knock-in at the endogenous locus
Sequence (P01116 1-188 isoform P01116-2 G12D): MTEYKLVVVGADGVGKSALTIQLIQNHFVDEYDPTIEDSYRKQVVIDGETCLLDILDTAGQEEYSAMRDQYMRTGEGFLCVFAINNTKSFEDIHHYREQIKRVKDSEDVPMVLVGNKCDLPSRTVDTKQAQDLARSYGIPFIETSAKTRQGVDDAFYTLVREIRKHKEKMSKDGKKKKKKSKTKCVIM
Assay: HiBit degradation assay in GP5d-HiBit-KRAS(G12D) cells (18 h; DC50, Dmax)
Assay type: cell-based
Quantity Measured: Dmax 18 h (% Ctrl)
Answer in % Ctrl, number only, no unit symbol.

Some compounds with recorded Dmax 18 h:
1. COC(=O)[C@H](NC(=O)[C@@H]1C[C@@H](O)CN1C(=O)C(C(C)C)n1cc(OCCCCN2CCCN(c3nccc(-c4noc([C@@]5(C)CCCc6sc(N)c(C#N)c65)n4)n3)[C@@H](C)C2)nn1)c1ccc(-c2scnc2C)cc1 (stereo partly shown) : 91
2. CC(C)C(C(=O)N1C[C@H](O)C[C@H]1C(=O)NCc1ccc(Br)cc1)c1cc(OCCCCN2CCCN(c3nccc(-c4noc([C@@]5(C)CCCc6sc(N)c(C#N)c65)n4)n3)[C@@H](C)C2)no1 (stereo partly shown) : 89
3. Cc1ncsc1-c1ccc([C@H](C)NC(=O)[C@@H]2C[C@@H](O)CN2C(=O)C(C(C)C)n2cc(OCCCCN3CCCN(c4nccc(-c5noc([C@@]6(C)CCCc7sc(N)c(C#N)c76)n5)n4)[C@@H](C)C3)nn2)cc1 (stereo partly shown) : 93

Attention now shifts to the item below.
[Q] Recorded Dmax 18 h for Cc1ncsc1-c1ccc([C@@H](NC(=O)[C@@H]2C[C@@H](O)CN2C(=O)[C@H](C(C)C)n2cc(OCCCCN3CCCN(c4nccc(-c5noc([C@@]6(C)CCCc7sc(N)c(C#N)c76)n5)n4)[C@@H](C)C3)nn2)[C@H](C)O)cc1 (single isomer, unassigned) , please?
[A] 94

* * *

Target: KRAS4B G12C (Homo sapiens, UniProt P01116, G12C)
Construct: HiBit; expressed in transfected cells; host or cells: GP5d cells (ECACC 95090715), stably transduced with lentivirus, CMV promoter
Sequence (P01116 1-188 isoform P01116-2 G12C): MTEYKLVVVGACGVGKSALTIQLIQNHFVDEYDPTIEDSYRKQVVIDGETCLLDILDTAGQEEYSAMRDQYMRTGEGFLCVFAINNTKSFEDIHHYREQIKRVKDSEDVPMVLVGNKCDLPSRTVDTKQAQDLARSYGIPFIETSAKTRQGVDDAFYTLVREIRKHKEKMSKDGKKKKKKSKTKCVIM
Test: HiBit KRAS4B mutant spectrum degradation assay, KRAS4B G12C in GP5d cells (18 h)
Format: cell-based
Settings: KRAS mutation G12C
Source text: The therapeutically relevant mutant KRAS constructs (WT, G12C, G12D, G12V, G13D) were obtained by site directed mutagenesis using a KRAS4B WT cDNA construct as a template. GP5d cells (ECACC Cat. No. 95090715) were transduced with lentiviral vectors expressing mutant KRAS4B cDNA under control of a CMV promoter. Stably transduced cells were selected using a neomycin selectable marker encoded on the construct. […]
Listing of recorded Dmax at 18 h by entry.
Give the value, in units of % Ctrl., as a plain number.

Sample answers from the record:
1. Cc1ncsc1-c1ccc([C@H](CO)NC(=O)[C@@H]2C[C@@H](O)CN2C(=O)[C@H](C(C)C)n2cc(OC(C)CCCN3CCCN(c4nccc(-c5noc([C@@]6(C)CCCc7sc(N)c(C#N)c76)n5)n4)[C@@H](C)C3)nn2)cc1 (some centres unmarked) : 94.7
2. Cc1ncsc1-c1ccc([C@H](CO)NC(=O)[C@@H]2C[C@@H](O)CN2C(=O)[C@H](C(C)C)n2cc(OCCCCN3CCCN(c4nccc(-c5noc([C@@]6(C)CCCc7sc(N)c(C#N)c76)n5)n4)[C@@H](C)C3)nn2)cc1 : 95.6
3. Cc1ncsc1-c1ccc([C@@H](NC(=O)[C@@H]2C[C@@H](O)CN2C(=O)[C@H](C(C)C)n2cc(OCCCCN3CCCN(c4nccc(-c5noc([C@@]6(C)CCCc7sc(N)c(C#N)c76)n5)n4)[C@@H](C)C3)nn2)[C@H](C)O)cc1 (single isomer, unassigned) : 96.2

[Q] Param item = Cc1ncsc1-c1ccc([C@H](CO)NC(=O)[C@@H]2C[C@@H](O)CN2C(=O)[C@H](C(C)C)n2cc(OCCCC(C)N3CCCN(c4nccc(-c5noc([C@@]6(C)CCCc7sc(N)c(C#N)c76)n5)n4)[C@@H](C)C3)nn2)cc1 (some centres unmarked) ; retrieve measured Dmax at 18 h.
[A] 95.6

[Q] Same question, Cc1ncsc1-c1ccc(CNC(=O)[C@@H]2C[C@@H](O)CN2C(=O)[C@@H](c2cc(OCCCCN3CCCN(c4nccc(-c5noc([C@@]6(C)CCCc7sc(N)c(C#N)c76)n5)n4)[C@@H](C)C3)no2)C(C)C)cc1 (single isomer, unassigned) this time
[A] 83

* * *

Target: KRAS(G12D) (Homo sapiens, UniProt P01116, G12D)
Construct: introduced immediately downstream of the initiating Methionine codon of the endogenous KRAS locus; host or cells: GP5d-HiBit-KRAS(G12D), a CRISPR knock-in at the endogenous locus
Assay: HiBit degradation assay in GP5d-HiBit-KRAS(G12D) cells (18 h; DC50, Dmax)
Assay type: cell-based
Quantity Measured: Dmax 18 h (% Ctrl)
Please reply with the bare figure in % Ctrl and do not write the unit itself.

Below: 2 compounds and their reported Dmax 18 h.
1. Cc1cc(CNC(=O)[C@@H]2C[C@@H](O)CN2C(=O)C(c2cc(OCCCCN3CCCN(c4nccc(-c5noc([C@@]6(C)CCCc7sc(N)c(C#N)c76)n5)n4)[C@@H](C)C3)no2)C(C)C)c(F)cc1-c1scnc1C (stereo partly shown) : 87
2. CC(C)C(C(=O)N1C[C@H](O)C[C@H]1C(=O)NCc1ccc(-n2cncn2)cc1)c1cc(OCCCCN2CCCN(c3nccc(-c4noc([C@@]5(C)CCCc6sc(N)c(C#N)c65)n4)n3)[C@@H](C)C2)no1 (stereo partly shown) : 93

[Q] Requested read-out: Dmax 18 h. Entry: Cc1ncsc1-c1ccc(CNC(=O)[C@@H]2C[C@@H](O)CN2C(=O)C(c2cc(OCCCCN3CCCN(c4nccc(-c5cc([C@@]6(C)CCCc7sc(N)c(C#N)c76)no5)n4)[C@@H](C)C3)no2)C(C)C)cc1 (stereo partly shown)
[A] 92

[Q] Lookup Cc1ncsc1-c1ccc([C@@H](NC(=O)[C@@H]2C[C@@H](O)CN2C(=O)[C@@H](C(C)C)n2cc(OCCCCN3CCCN(c4nccc(-c5noc([C@@]6(C)CCCc7sc(N)c(C#N)c76)n5)n4)[C@@H](C)C3)nn2)[C@H](C)O)cc1 (single isomer, unassigned)
[A] 61

* * *

Tested on: AsPC-1 cells
Test: AsPC-1 CTG proliferation assay (120 h) (pancreatic cancer, G12D)
Format: cell-based
Conditions: Homo sapiens, ASPC1, AsPC-1 proliferation
Quantity Measured: IC50 (nM)
Give the number; nM is assumed, so skip it.

1) Cc1ncsc1-c1ccc([C@H](CO)NC(=O)[C@@H]2C[C@@H](O)CN2C(=O)[C@H](C(C)C)n2cc(OC(C)CCCN3CCCN(c4nccc(-c5noc([C@@]6(C)CCCc7sc(N)c(C#N)c76)n5)n4)[C@@H](C)C3)nn2)cc1 (some centres unmarked) : 183
2) Cc1ncsc1-c1ccc(CNC(=O)[C@@H]2C[C@@H](O)CN2C(=O)[C@H](c2cc(OCCCN3CCCN(c4nccc(-c5noc([C@@]6(C)CCCc7sc(N)c(C#N)c76)n5)n4)[C@@H](C)C3)no2)C(C)C)cc1 (single isomer, unassigned) : 1800
3) Cc1ncsc1-c1ccc(CNC(=O)[C@@H]2C[C@@H](O)CN2C(=O)[C@@H](c2cc(OCCCCN3CCCN(c4nccc(-c5noc([C@@]6(C)CCCc7sc(N)c(C#N)c76)n5)n4)[C@@H](C)C3)no2)C(C)C)cc1 (single isomer, unassigned) : 144

[Q] IC50 lookup needed for Cc1ncsc1-c1ccc([C@H](CO)NC(=O)[C@@H]2C[C@@H](O)CN2C(=O)C(C(C)C)n2cc(OCCCCN3C[C@H](C)N(c4nccc(-c5noc([C@@]6(C)CCCc7sc(N)c(C#N)c76)n5)n4)CCC3(C)C)nn2)cc1 (some centres unmarked) , thanks.
[A] 8330

[Q] Try Cc1ncsc1-c1ccc([C@@H](NC(=O)[C@@H]2C[C@@H](O)CN2C(=O)[C@H](C(C)C)n2cc(OCCCCN3CCCN(c4nccc(-c5noc([C@@]6(C)CCCc7sc(N)c(C#N)c76)n5)n4)[C@@H](C)C3)nn2)[C@H](O)C(C)C)cc1 (single isomer, unassigned) next.
[A] 51.4
